- Test system: tomato shoot fresh weight
- Assay explanation: Tomato shoot fresh weight 7 days after treatment (growth suppression)
- Format: in vivo, Tomato (variety: Rutgers)
- Particulars: 2500 ppm (10 mg) (S)-(+)-abscisic acid, foliar spray
Measurement name: Fresh weight (g) 7 days after treatment
Numbers only, in g.

Field: example entries. Status: answers known.
INSERT INTO assay_data (compound, unit_text, observed_measurement) VALUES
  ('CC1=CC(=O)CC(C)(C)[C@@]1(O)/C=C/C(C)=C\C(=O)[O-].[Cs+] [Example 2, Cesium Salt of (S)-(+)-Abscisic Acid]', 'g', 11.3),
  ('CC1=CC(=O)CC(C)(C)[C@@]1(O)/C=C/C(C)=C\C(=O)[O-].CCCC[N+](CCCC)(CCCC)CCCC', 'g', 11.4),
  ('CC1=CC(=O)CC(C)(C)[C@@]1(O)/C=C/C(C)=C\C(=O)[O-].C[N+](C)(C)CCO [Example 5, Choline Salt of (S)-(+)-abscisic Acid]', 'g', 16.0);

For every item in the list below, what is its measured Fresh weight (g) 7 days after treatment?
1. CC1=CC(=O)CC(C)(C)[C@@]1(O)/C=C/C(C)=C\C(=O)[O-].[Rb+] [Example 1, Rubidium Salt of (S)-(+)-Abscisic Acid]
2. CC1=CC(=O)CC(C)(C)[C@@]1(O)/C=C/C(C)=C\C(=O)O.CCCCN(CCCC)CCCC [Example 14, reference compound]

## Output
1: 16.4; 2: 13.9
